Can you tell me %Inh for the items I'm about to list?
System: JAK1(JH2domain-pseudokinase);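 note: KINOMEscan kinase panel screen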
protocolConditions: concentration: 1 μM, replicates: in singlicate; n = 1
One number for each entry, in %.

COC(=O)Nc1nc2cc(Oc3ccc(NC(=O)Nc4cc(C(F)(F)F)ccc4F)cn3)ccc2[nH]1.Cl.Cl: 0
COc1cccc(-c2ccc3c(NC(=O)C4CC4)n[nH]c3n2)c1: 0

Parameter requested: %Inh. Apply to each item below.
1. Nc1ncc(-c2ccc3nccc(-c4ccncc4)c3c2)cc1S(=O)(=O)N1CCOCC1
2. CCS(=O)(=O)c1ccc(OC)c(Nc2nccc(-c3c(-c4cccc(NC(=O)c5c(F)cccc5F)c4)nn4ncccc34)n2)c1
3. CCn1c(-c2nonc2N)nc2c(C#CC(C)(C)O)nc(OC[C@H](N)c3ccccc3)cc21
4. c1ccc(-c2n[nH]cc2Nc2ccnc3ccccc23)nc1
5. Clc1ccc(-c2nn3ncccc3c2-c2ccnc(Nc3ccc4c(c3)OCCO4)n2)cc1
6. Nc1ncnc2c1nc(-c1ccccc1)n2-c1ccccc1
7. O=C(Nc1n[nH]c2cc(-c3ccoc3)ccc12)C1CC1

Response:
1: 0; 2: 0; 3: 0; 4: 33; 5: 17; 6: 6; 7: 29
